Reference source: patent US8784860B2

test system: human coronary artery smooth muscle cell; test: In vitro cell culture study of coronary artery smooth muscle cell proliferation (trichostatin A); assay type: cell-based; conditions: human coronary artery smooth muscle cells, read-out: anti-proliferative IC50
pIC50: −log10 of the molar value.
recorded metric: pIC50

According to the records, this compound CC(/C=C/C(=O)NO)=C\[C@@H](C)C(=O)c1ccc(N(C)C)cc1 displays pIC50 of ~8.22
